# Experimental Target: HLA-B*44:05 (Homo sapiens, UniProt P01889, A223V/A65T/A93T/A95T/D201E/D98Y/E176V/E187L/E204Q/E69K/G107R/H137Y/K202T/L105A/L119I/N104T/N87E/Q56L/Q94N/R106L/R155S/R180D/S101N/S121R/S35A/S48T/T118I/V36M/W191S/Y91S)
# Measurement Description: MHC binding assay (UV-ligand exchange, β2m ELISA, peptide exchange yield)
# Experimental Parameters: binding to HLA-B*44:05
Observed Property: Peptide exchange (MHC class I binding score, peptide exchange yield)

May I ask what Peptide exchange (MHC class I binding score, peptide exchange yield) has been recorded for 229 (AEDLEKKYA; listed as Homo sapiens) [compound 229] ?
++ (>20% = ++)

May I ask what Peptide exchange (MHC class I binding score, peptide exchange yield) has been recorded for 389 (DEQRRQNVAY; listed as Homo sapiens) [compound 389] ?
++ (>20% = ++)

May I ask what Peptide exchange (MHC class I binding score, peptide exchange yield) has been recorded for 106 (SVISDSPRSW; listed as Homo sapiens) [compound 106] ?
+++ (>50 = +++)

May I ask what Peptide exchange (MHC class I binding score, peptide exchange yield) has been recorded for 139 (AESDFSNNML; listed as Homo sapiens) [compound 139] ?
+++ (>50 = +++)
